Target: ALPK1 (Homo sapiens (Human))
Sequence (Q96QP1 whole entry): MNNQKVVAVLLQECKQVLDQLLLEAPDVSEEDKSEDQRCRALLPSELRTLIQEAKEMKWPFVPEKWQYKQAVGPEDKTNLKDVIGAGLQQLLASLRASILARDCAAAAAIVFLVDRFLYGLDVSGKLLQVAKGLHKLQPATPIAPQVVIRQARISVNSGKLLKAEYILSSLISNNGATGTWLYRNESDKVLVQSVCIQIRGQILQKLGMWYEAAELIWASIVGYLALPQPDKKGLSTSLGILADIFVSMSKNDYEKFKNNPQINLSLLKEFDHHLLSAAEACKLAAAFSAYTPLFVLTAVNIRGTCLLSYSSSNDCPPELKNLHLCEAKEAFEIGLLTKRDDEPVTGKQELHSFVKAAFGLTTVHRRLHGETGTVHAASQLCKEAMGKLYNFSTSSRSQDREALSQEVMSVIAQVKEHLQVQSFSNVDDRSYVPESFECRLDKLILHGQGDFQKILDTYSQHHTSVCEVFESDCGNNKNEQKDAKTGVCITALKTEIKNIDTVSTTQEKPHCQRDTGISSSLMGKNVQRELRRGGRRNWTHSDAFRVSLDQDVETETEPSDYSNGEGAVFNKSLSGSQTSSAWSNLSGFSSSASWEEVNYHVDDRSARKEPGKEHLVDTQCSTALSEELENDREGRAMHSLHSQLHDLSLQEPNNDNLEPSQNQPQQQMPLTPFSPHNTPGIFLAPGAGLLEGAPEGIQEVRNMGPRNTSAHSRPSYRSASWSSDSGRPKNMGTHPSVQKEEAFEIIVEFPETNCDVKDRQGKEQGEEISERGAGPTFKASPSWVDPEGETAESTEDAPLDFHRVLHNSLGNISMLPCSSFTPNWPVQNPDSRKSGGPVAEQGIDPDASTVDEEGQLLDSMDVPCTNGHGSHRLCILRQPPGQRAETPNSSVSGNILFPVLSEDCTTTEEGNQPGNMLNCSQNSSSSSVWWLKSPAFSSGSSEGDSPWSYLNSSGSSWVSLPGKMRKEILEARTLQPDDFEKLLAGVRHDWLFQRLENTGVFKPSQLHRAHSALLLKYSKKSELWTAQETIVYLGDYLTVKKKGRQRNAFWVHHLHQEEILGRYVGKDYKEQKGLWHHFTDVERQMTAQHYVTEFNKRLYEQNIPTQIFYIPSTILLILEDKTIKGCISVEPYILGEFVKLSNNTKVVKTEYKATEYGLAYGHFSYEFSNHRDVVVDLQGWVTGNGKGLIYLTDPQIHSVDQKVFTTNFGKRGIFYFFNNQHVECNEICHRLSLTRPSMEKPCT
Test: ALPK1 in vitro kinase assay (HTRF of TIFA phosphorylation)
Format: biochemical
Conditions: ALPK1 2 nM, TIFA substrate, ADP-Heptose activator, HTRF readout
pIC50: −log10 of the molar value.

Compound: CN(C)CCNc1ccc(C(=O)Nc2nc(C(C)(C)c3ccc(Br)cc3)cs2)cn1
Target or system: ALPK1 (Homo sapiens (Human))
pIC50: 6.90

Compound: COc1ccc(C(C)(C)c2csc(NC(=O)c3ccc(N4CCN(CCO)CC4)nc3)n2)cc1
Target or system: ALPK1 (Homo sapiens (Human))
pIC50: 6.98

Compound: Cc1ccc(C(C)(C)c2csc(NC(=O)c3ccc(CN4CCN(C)CC4)cc3)n2)cc1
Target or system: ALPK1 (Homo sapiens (Human))
pIC50: 7.55

Compound: C#C[C@@](C)(c1ccc(Cl)cc1)c1csc(NC(=O)c2ccc(N3CCNC(CO)C3)cc2)n1 (stereo in doubt)
Target or system: ALPK1 (Homo sapiens (Human))
pIC50: 7.05

Compound: C#C[C@](C)(c1ccc(Cl)cc1)c1csc(NC(=O)c2ccc(N3CCNCC3)cc2)n1 (stereo in doubt)
Target or system: ALPK1 (Homo sapiens (Human))
pIC50: 6.28

Compound: CC(C)(c1ccc(Br)cc1)c1csc(NC(=O)c2ccc(N3CCNCC3)nc2)n1
Target or system: ALPK1 (Homo sapiens (Human))
pIC50: 7.12

Compound: C#CC(C)(c1ccc(F)cc1)c1csc(NC(=O)c2ccc(N3CCNCC3)c(C(N)=O)c2)n1 (stereo not shown)
Target or system: ALPK1 (Homo sapiens (Human))
pIC50: 6.99

The reported numbers originate from patent US20240109853A1.
